The reported numbers originate from patent US20240132480A1.

molecular target: Mtb Lpd (Mycobacterium tuberculosis (strain ATCC 25618 / H37Rv)); assay type: biochemical; details: read-out: LPD IC50
pIC50: −log10 of the molar value.
Overview of reported pIC50 across a group of compounds:
Assay readout: pIC50

>>> df
                                given_smiles  assay_readout  reading
 0  Cc1cc(S(=O)(=O)N(C)CC(=O)Nc2ccn(C)c(=O)c2)c2n[nH]c(Cl)c2c1          pIC50     6.60
 1  C#CCNC(=O)[C@@H]1CCN1S(=O)(=O)c1cc(C)cc2cn[nH]c12          pIC50     6.65
 2  Cc1cc(S(=O)(=O)N(C)CC(=O)Nc2nc3ccccc3s2)c2n[nH]cc2c1          pIC50     7.50
 3  Cc1cc(S(=O)(=O)N(C)CC(=O)NC2CCN(C)CC2)c2n[nH]cc2c1          pIC50     6.02
 4  CCN(CC(=O)Nc1ccc2c(c1)OCCN2C(C)(C)CO)S(=O)(=O)c1cc(C)cc2cn[nH]c12          pIC50     7.41
 5  Cc1cc(S(=O)(=O)N(C)CC(=O)Nc2ccc(N3CCOCC3)c(Cl)c2)c2[nH]c(C#N)cc2c1          pIC50     7.06
 6  Cc1cc(S(=O)(=O)N2CC[C@H]2C(=O)Nc2ccc3c(c2)OCCN3C(C)(C)CO)c2[nH]ncc2c1          pIC50     7.43
 7  Cc1cc(S(=O)(=O)N(C)CC(=O)Nc2ccc3c(c2)OCCN3C2COC2)c2[nH]c(C#N)cc2c1          pIC50     7.12
 8  Cc1cc(S(=O)(=O)N2CC[C@@H]2C(=O)Nc2ccn(C)c(=O)c2)c2[nH]c(C#N)cc2c1          pIC50     5.05
 9  Cc1cc(S(=O)(=O)N(C)CC(=O)Nc2ccc3ncccc3c2)c2n[nH]cc2c1          pIC50     7.66
10  Cc1cc(S(=O)(=O)N(C)CC(=O)NC2CCOCC2)c2n[nH]cc2c1          pIC50     6.93
11  Cc1cc(S(=O)(=O)N(C)CC(=O)NC2(C)CCCCC2)c2n[nH]cc2c1          pIC50     5.94
12  Cn1ccc(NC(=O)[C@@H]2CCN2S(=O)(=O)c2cc(C(F)F)cc3cn[nH]c23)cc1=O          pIC50     7.24
13  Cc1cc(S(=O)(=O)N(C)CC(=O)NCc2ccccc2C)c2[nH]ncc2c1          pIC50     6.97
14  CN(CC(=O)Nc1ccn(C)c(=O)c1)S(=O)(=O)c1cc(C2(O)CC2)cc2cn[nH]c12          pIC50     6.18
15  Cc1cc(S(=O)(=O)N(C)CC(=O)Nc2ccc3c(c2)OCCN3C2CCOCC2)c2n[nH]c(F)c2c1          pIC50     7.60
